- ASSAYED_SYSTEM: T1, orthogonal hCD122 receptor (hoRb), hCD122 with H133D and Y134F (human, UniProt P14784 27-550)
- T1 sequence: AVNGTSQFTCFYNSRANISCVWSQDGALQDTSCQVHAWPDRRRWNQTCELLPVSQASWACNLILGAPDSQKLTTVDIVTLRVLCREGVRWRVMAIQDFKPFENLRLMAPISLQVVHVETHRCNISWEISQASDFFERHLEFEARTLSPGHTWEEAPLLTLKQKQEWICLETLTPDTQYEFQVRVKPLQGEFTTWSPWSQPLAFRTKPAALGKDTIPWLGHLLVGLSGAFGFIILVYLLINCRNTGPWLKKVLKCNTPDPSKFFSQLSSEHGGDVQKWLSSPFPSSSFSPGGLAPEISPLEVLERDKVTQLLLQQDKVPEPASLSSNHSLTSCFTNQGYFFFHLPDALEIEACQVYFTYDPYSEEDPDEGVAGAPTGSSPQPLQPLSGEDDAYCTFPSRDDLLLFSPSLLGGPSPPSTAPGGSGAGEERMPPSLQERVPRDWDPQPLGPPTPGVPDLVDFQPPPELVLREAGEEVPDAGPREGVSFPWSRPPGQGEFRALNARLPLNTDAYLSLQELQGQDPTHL
- ASSAY_INFO: cell-based or functional assay
ASSAY_READOUT: 3F8 Ortho Proliferation Signal 1:50 (cts/min)

[Q] Need 3F8 Ortho Proliferation Signal 1:50 of D109C, SQVLKA (ligand) APTSSSTKKTQLQLSQLLVLLKAILNGINNYKNPKLTRMLTFKFYMPKKATELKHLQCLEEELKPLEEVLNLAQSKNFHLRPRDLISNINVIVLELKGSETTFMCEYACETATIVEFLNRWITFCQSIISTLT , thanks.
[A] 18600

[Q] For the binder L80V, SQVLKA (ligand) APTSSSTKKTQLQLSQLLVLLKAILNGINNYKNPKLTRMLTFKFYMPKKATELKHLQCLEEELKPLEEVLNLAQSKNFHVRPRDLISNINVIVLELKGSETTFMCEYADETATIVEFLNRWITFCQSIISTLT , what 3F8 Ortho Proliferation Signal 1:50 is on record?
[A] 21200

P. L18E, SQVLKA (ligand) APTSSSTKKTQLQLSQLEVLLKAILNGINNYKNPKLTRMLTFKFYMPKKATELKHLQCLEEELKPLEEVLNLAQSKNFHLRPRDLISNINVIVLELKGSETTFMCEYADETATIVEFLNRWITFCQSIISTLT
Q. SQVLTA (ligand) APTSSSTKKTQLQLSQLLVLLTAILNGINNYKNPKLTRMLTFKFYMPKKATELKHLQCLEEELKPLEEVLNLAQSKNFHLRPRDLISNINVIVLELKGSETTFMCEYADETATIVEFLNRWITFCQSIISTLT
[Q] Endpoint returns the identifier whose 3F8 Ortho Proliferation Signal 1:50 is numerically larger, either P or Q . Use the label to indicate which entry you chose.
[A] Q
